System: Mycobacterium tuberculosis
Experiment: AntiMycobacterium tuberculosis activity 1-week 7H9/glucose/BSA/Tx MIC (uM)
Format: functional
Details: 168 h
Value type: log10 MIC (log10 of the value in µM)
Heads up: the numbers are on a log10 scale; they represent MIC in µM.

Recorded log10 MIC, per entry:
Compound	log10 MIC
c1coc(CNc2nc(N3CCCCC3)nc3ccccc23)c1	0.80
COc1ccc(OC(C)C(=O)Nc2ccc(Cl)cc2C)cc1 (stereo unspecified)	0.97
CC1=NN(c2nc3ccccc3s2)C(=O)C1Cc1cccc2ccccc12 (stereo unspecified)	1.10
CCc1ccc(S(=O)(=O)Nc2cc(CN3CCN(CCC(C)C)CC3)ccc2C)cc1	1.40
CCCCS(=O)(=O)Nc1ccc2cnn(C)c2c1	-0.41
COc1ccc(-c2nc(-c3cccc(NC(=O)Cc4ccc(F)cc4)c3)no2)cc1OC	-0.70

Give me log10 MIC for each of these compounds, listed below.
1. COc1ccc2nc(C)cc(OCC(=O)Nc3ccccc3OC)c2c1
2. CN1CCN(c2cc(-c3ccc(F)cc3)nc(-c3ccncc3)n2)CC1
3. COC(=O)c1c(NC(=O)c2c(F)c(F)c(F)c(F)c2F)sc2c1CCCCC2
4. Cc1ccc2[nH]c(C3CCCNC3)c(-c3ccncc3)c2c1 (stereo unspecified)

1. 1.40
2. 1.10
3. -0.11
4. 1.40

* * *

System: Schistosoma mansoni
Test: AntiSchistosoma mansoni activity Newly Transformed Schistosomula: inhibition at 10 uM at 72h (%)
Assay type: functional
Value type: Inhibition (%)
One number for each entry, in %.

Compound	Inhibition [%]
COCC(C)NC(=O)CSc1ncnc2sc(-c3ccccc3)cc12 (stereo not drawn)	50
Cc1ccccc1C(=O)N1N=C(Nc2ccccc2)SC1(C)C	0
CS(=O)(=O)c1ccc(C(=O)N(CC2CCCO2)c2nc3ccccc3s2)cc1[N+](=O)[O-] (stereo not drawn)	100

Give Inhibition for each of the items listed below.
1. Cn1ncc2c(N3CCOCC3)nc(NCCc3c[nH]c4ccccc34)nc21
2. COc1ccc(-c2cnc3cnc(-c4cccc(OC(C)C)c4)cn23)cc1
3. Cc1cc(OCC(=O)Nc2ccc(C(C)C)cc2)n(C)c(=O)c1C#N
4. COc1ccc(-c2nnc3ccc(-c4cccc(C(C)C)c4)cn23)cc1OC
5. c1ccc(Oc2ccc(-c3cncc(-c4ccc5[nH]ccc5c4)n3)cc2)cc1
6. CNc1nnc(Sc2cnn(-c3ccccc3)c(=O)c2Cl)s1

1. 88
2. 93
3. 13.3
4. 79
5. 100
6. 100

Your task in this section: give Inhibition for each listed record.
1. Cc1[nH]c2ccccc2c1C(c1cccs1)N1CCN(C)CC1 (stereo not drawn)
2. Cc1nn(C(=O)Nc2cccc(C(F)(F)F)c2)c(C)c1Sc1ncccn1
3. c1ccc(-c2[nH]c3ccccc3c2C(c2ccccn2)N2CCCC2)cc1 (stereo not drawn)
4. COc1ccc(-c2onc(C(F)(F)F)c2-c2ccc(Cl)cc2)c(O)c1

1: 100; 2: 33.3; 3: 100; 4: 20

* * *

Tested on: Plasmodium falciparum
Assay: Antimalarial activity: Asexual Blood Stage Plasmodium falciparum Dd2 IC50 (uM)
Format: functional, organism-based
Value type: pIC50
One number for each entry, as −log10 of the molar value.

Study these solved cases before continuing.
Molecule	Value type	Test result
FC(F)(F)c1cnc(Sc2nnc(-c3ccncc3)o2)c(Cl)c1	pIC50	6.70
OCc1ccc(-c2cncc(Nc3cccc(Cl)c3)c2)cc1	pIC50	8.00
Cc1nc(-c2cccc(NCc3ccccc3)c2)[nH]c1C	pIC50	5.30
COc1ccc(-c2cnc3ccc(N4CCCC4)nn23)cc1OC	pIC50	6.17
c1csc(-c2cnc3sc(NCC4CCOCC4)nn23)c1	pIC50	5.95

Take each entry in turn and give its pIC50.
1. CCOc1ccccc1NC(C)C(=O)Nc1cc(C(F)(F)F)ccc1N1CCOCC1 (stereo unspecified)
2. COc1cc(-c2cc(-c3ccc(S(C)(=O)=O)cc3)cnc2N)ccc1O
3. O=C1COCc2ccc(Br)cc2N1Cc1ccc(C(F)(F)F)cc1

1. 6.21
2. 6.85
3. 5.51

Hello, I would appreciate it if you could give pIC50 for each entry below.
1. Cc1cc(Cl)c(S(=O)(=O)N2CCCC2)cc1OCC(=O)NC1CCCCC1
2. CC1(C)Cc2c(c(N3CCOCC3)nc3snc(Br)c23)CO1
3. CN(C)CCNC(=O)N1CCCN(c2ncnc3cc(-c4ccccc4)sc23)CC1

1. 6.68
2. 6.59
3. 5.54

Each recorded value in this set is attributed to ChEMBL document CHEMBL3832761.
